Data origin: patent EP0478545B1

# Measurement Description: Octanol-water partition coefficient (method of Fujita et al.)
# Conditions: octanol/water, pH 7.4
Readout Type: logP
# respond with the number and nothing more

Reported logP for Nc1n[n+]([O-])c2cc([N+](=O)[O-])ccc2[n+]1[O-] : what is it?
-0.97

* * *

# Measurement Description: physchem
Readout Type: solubility (mM)
Express it in mM; write the number only.

Reported solubility for Nc1n[n+]([O-])c2ccccc2[n+]1[O-] : what is it?
13.5

* * *

# Measurement Description: Solubility
Readout Type: solubility (µM)
Express it in µM; write the number only.

Reported solubility for Nc1n[n+]([O-])c2cc([N+](=O)[O-])ccc2[n+]1[O-] : what is it?
2000
